Recorded values, source patent US8299048B2.

EXPERIMENTAL SYSTEM: glucocorticoid receptor (Homo sapiens)
Construct: endogenous in cells
Sequence (P04150 whole entry): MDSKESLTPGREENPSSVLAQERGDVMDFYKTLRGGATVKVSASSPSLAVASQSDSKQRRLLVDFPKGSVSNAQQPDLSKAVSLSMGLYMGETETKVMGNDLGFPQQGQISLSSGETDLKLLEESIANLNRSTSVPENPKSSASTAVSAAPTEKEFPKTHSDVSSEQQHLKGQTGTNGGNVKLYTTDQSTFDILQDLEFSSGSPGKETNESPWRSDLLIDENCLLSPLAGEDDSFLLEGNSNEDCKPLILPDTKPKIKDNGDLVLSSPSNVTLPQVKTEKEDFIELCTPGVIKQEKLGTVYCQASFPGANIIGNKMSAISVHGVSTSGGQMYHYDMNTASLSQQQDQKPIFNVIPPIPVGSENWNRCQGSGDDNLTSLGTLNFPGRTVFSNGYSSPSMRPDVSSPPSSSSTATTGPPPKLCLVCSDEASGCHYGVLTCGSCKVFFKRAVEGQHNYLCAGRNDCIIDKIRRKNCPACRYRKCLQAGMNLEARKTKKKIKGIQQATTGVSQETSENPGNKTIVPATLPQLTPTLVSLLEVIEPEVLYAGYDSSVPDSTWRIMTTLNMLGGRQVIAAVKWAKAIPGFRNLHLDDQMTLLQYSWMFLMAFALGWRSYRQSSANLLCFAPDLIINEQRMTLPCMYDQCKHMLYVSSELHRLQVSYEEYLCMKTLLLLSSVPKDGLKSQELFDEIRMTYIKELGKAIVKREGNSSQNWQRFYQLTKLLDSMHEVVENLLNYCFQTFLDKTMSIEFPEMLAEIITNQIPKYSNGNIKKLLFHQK
ASSAY DETAILS: Ligand binding assay (GR BIND)
ASSAY READOUT: pKi
Scale explanation: pKi corresponds to minus log10 of a concentration expressed in moles per litre.

Q. GET /values?readout=pKi&item= C[C@@H](O)CN(C[C@H]1CCC2=Cc3c(cnn3-c3ccc(F)cc3)C[C@@]21C)S(=O)(=O)c1ccc(F)c(Cl)c1
A. 8.54

Q. GET /values?readout=pKi&item= CN1CCOc2cc(S(=O)(=O)N(CC3CC3)C[C@H]3CCC4=Cc5c(cnn5-c5ccc(F)cc5)C[C@@]43C)ccc21
A. 8.72

Q. GET /values?readout=pKi&item= CCCS(=O)(=O)N(CC(O)C(F)(F)F)C[C@H]1CCC2=Cc3c(cnn3-c3ccc(F)cc3)C[C@@]21C (stereo partly shown)
A. 8.80

Q. GET /values?readout=pKi&item= C[C@]12Cc3cnn(-c4ccc(F)cc4)c3C=C1CC[C@@H]2CN(CCc1ccccn1)S(=O)(=O)Cc1ccccc1C(N)=O
A. 8.57

----------
EXPERIMENTAL SYSTEM: human GR (Homo sapiens, UniProt P04150)
ASSAY DETAILS: Trans-Activation Modulation of Glucocorticoid Receptor (GRAMMER), MMTV-LUC reporter, agonist mode
Assay type: cell-based
Design: endogenous in cells
CONDITION: A549 cells; inflection point; read-out: Transactivation A549 Cells GRAMMER IP
Description: This assay assesses the ability of test compounds to control transcription from the MMTV-LUC reporter gene in lung adenocarcinoma A549 cells or MDA-MB-453 cells, a human breast cancer cell line that naturally expresses the human GR. […] The routine transient assay consists of plating 7,000-25,000 cells/well of a white, clear-bottom 96-well plate. […] The cells are trypsinized and counted to the right cell number in the proper amount of fresh media. […]
What EC50 was measured for each of the following?

Q. GET /values?readout=EC50&item= C[C@]12Cc3cnn(-c4ccc(F)cc4)c3C=C1CC[C@@H]2CN(CCc1ccccn1)S(=O)(=O)Cc1cccnc1
A. 351 nM

Q. GET /values?readout=EC50&item= C[C@]12Cc3cnn(-c4ccc(F)cc4)c3C=C1CC[C@@H]2CN(CC1CCCO1)S(=O)(=O)Cc1cccc(C(F)(F)F)c1 (stereo partly shown)
A. 1100 nM

Q. GET /values?readout=EC50&item= C[C@H](O)CN(C[C@H]1CCC2=Cc3c(cnn3-c3ccc(F)cc3)C[C@@]21C)S(=O)(=O)CC(F)(F)F
A. 54.7 nM

Q. GET /values?readout=EC50&item= C[C@]12Cc3cnn(-c4ccc(F)cc4)c3C=C1CC[C@@H]2CN(CCc1ccccc1CO)S(=O)(=O)CC(F)(F)F
A. 241 nM

Q. GET /values?readout=EC50&item= Cn1nc(C(F)(F)F)cc1-c1ccc(S(=O)(=O)N(CCO)C[C@H]2CCC3=Cc4c(cnn4-c4ccc(F)cc4)C[C@@]32C)s1
A. 450 nM

Q. GET /values?readout=EC50&item= C[C@]12Cc3cnn(-c4ccc(F)cc4)c3C=C1CC[C@@H]2CN(CC(O)C(F)F)S(=O)(=O)Cc1cccnc1 (stereo partly shown)
A. 509 nM

Q. GET /values?readout=EC50&item= C[C@]12Cc3cnn(-c4ccc(F)cc4)c3C=C1CC[C@@H]2CN(CC#N)S(=O)(=O)c1ccc(F)c(F)c1
A. 453 nM

----------
What pEC50 was measured for each of the following?
EXPERIMENTAL SYSTEM: human GR (Homo sapiens, UniProt P04150)
ASSAY DETAILS: Transrepression Assay (GITAR), TNFα-β-lactamase reporter in U937 cells
Format: cell-based
Parameters: U937 cells contain an endogenous glucocorticoid receptor (GR); endogenous in cells; host or cells: U937 cells stably transfected with the TNF-alpha promoter/beta-lactamase reporter
CONDITION: U937 cells; inflection point; read-out: Transrepression U937 Cells GITAR IP
Scale explanation: pEC50 corresponds to minus log10 of a concentration expressed in moles per litre.

Q. GET /values?readout=pEC50&item= C[C@]12Cc3cnn(-c4ccc(F)cc4)c3C=C1CC[C@@H]2CN(CCc1ccccn1)S(=O)(=O)CC(F)(F)F [Example 128]
A. 6.49

Q. GET /values?readout=pEC50&item= C[C@]12Cc3cnn(-c4ccc(F)cc4)c3C=C1CC[C@@H]2CN(CC1CC1)S(=O)(=O)c1ccc(F)c(Cl)c1 [Example 15]
A. 6.59

Q. GET /values?readout=pEC50&item= C[C@]12Cc3cnn(-c4ccccc4)c3C=C1CC[C@@H]2CN(CCc1ccccn1)S(=O)(=O)Cc1cccnc1 [Example 140]
A. 5.80

Q. GET /values?readout=pEC50&item= C[C@]12Cc3cnn(-c4ccc(F)cc4)c3C=C1CC[C@@H]2CN(CCO)S(=O)(=O)c1ccc(F)cc1F [Example 82]
A. 6.66

----------
EXPERIMENTAL SYSTEM: human GR (Homo sapiens)
ASSAY DETAILS: Transrepression Assay (GITAR), TNFα-β-lactamase reporter in U937 cells
Assay type: cell-based
Set-up: U937 cells contain an endogenous glucocorticoid receptor (GR); endogenous in cells; host or cells: U937 cells stably transfected with the TNF-alpha promoter/beta-lactamase reporter
CONDITION: U937 cells; inflection point; read-out: Transrepression U937 Cells GITAR IP
What pEC50 was measured for each of the following?
Scale explanation: pEC50 corresponds to minus log10 of a concentration expressed in moles per litre.

Q. GET /values?readout=pEC50&item= COC(=O)c1ccccc1CS(=O)(=O)N(C[C@H]1CCC2=Cc3c(cnn3-c3ccc(F)cc3)C[C@@]21C)C[C@@H](C)O
A. 6.73

Q. GET /values?readout=pEC50&item= COC(=O)c1sccc1S(=O)(=O)N(CC#N)C[C@H]1CCC2=Cc3c(cnn3-c3ccc(F)cc3)C[C@@]21C
A. 5.75

Q. GET /values?readout=pEC50&item= C[C@]12Cc3cnn(-c4ccc(F)cc4)c3C=C1CC[C@@H]2CN(CCc1ccccc1F)S(=O)(=O)CC(F)(F)F
A. 6.86

Q. GET /values?readout=pEC50&item= C[C@]12Cc3cnn(-c4ccc(F)cc4)c3C=C1CC[C@@H]2CN(CCc1ccncc1)S(=O)(=O)CC(F)(F)F
A. 6.21

Q. GET /values?readout=pEC50&item= C[C@]12Cc3cnn(-c4ccc(F)cc4)c3C=C1CC[C@@H]2CN(CCO)S(=O)(=O)c1cccc(Cl)c1Cl
A. 5.81

Q. GET /values?readout=pEC50&item= C[C@]12Cc3cnn(-c4ccc(F)cc4)c3C=C1CC[C@@H]2CN(CCO)S(=O)(=O)Cc1cccc(C(F)(F)F)c1
A. 6.39

Q. GET /values?readout=pEC50&item= CC(C1CCC2=Cc3c(cnn3-c3ccc(F)cc3)C[C@@]21C)N(CC1CC1)S(=O)(=O)CC(F)(F)F (stereo partly shown)
A. 6.72

----------
EXPERIMENTAL SYSTEM: human GR (Homo sapiens)
ASSAY DETAILS: Trans-Activation Modulation of Glucocorticoid Receptor (GRAMMER), MMTV-LUC reporter, agonist mode
Format: cell-based
Parameters: endogenous in cells
CONDITION: A549 cells; inflection point; read-out: Transactivation A549 Cells GRAMMER IP
pEC50: −log10 of the molar value.
Binary call on pEC50: Condition met from 6 upward, Condition not met beneath that.

Q. Quick check, pEC50 >= 6? C[C@]12Cc3cnn(-c4ccc(F)cc4)c3C=C1CC[C@@H]2CN(CCCc1ccccc1)S(=O)(=O)c1ccccc1F [Example 195]
A. Condition met

Q. Quick check, pEC50 >= 6? C[C@]12Cc3cnn(-c4ccc(F)cc4)c3C=C1CC[C@@H]2CN(CCC(N)C(F)(F)F)S(=O)(=O)CC(F)(F)F (stereo partly drawn) [Example 147]
A. Condition met

Q. Quick check, pEC50 >= 6? COC(=O)c1ccccc1CS(=O)(=O)N(CC(O)C(F)(F)F)C[C@H]1CCC2=Cc3c(cnn3-c3ccc(F)cc3)C[C@@]21C (stereo partly drawn) [Example 162]
A. Condition met

Q. Quick check, pEC50 >= 6? C[C@@H](O)CN(C[C@H]1CCC2=Cc3c(cnn3-c3ccc(F)cc3)C[C@@]21C)S(=O)(=O)Cc1ccccc1C(=O)O [Example 182]
A. Condition not met

----------
EXPERIMENTAL SYSTEM: human GR (Homo sapiens, UniProt P04150)
ASSAY DETAILS: Trans-Activation Modulation of Glucocorticoid Receptor (GRAMMER), MMTV-LUC reporter, agonist mode
Format: cell-based
Set-up: endogenous in cells
CONDITION: A549, A549 cells; maximum activity; read-out: Transactivation A549 Cells GRAMMER Emax
ASSAY READOUT: Emax (%)
State the answer as a number, implicitly in %.

Q. Checklist item: Emax tested on human GR (Homo sapiens, UniProt P04150), entry CC(CN(C[C@H]1CCC2=Cc3c(cnn3-c3ccc(F)cc3)C[C@@]21C)S(=O)(=O)CC(F)(F)F)c1cccnc1 (stereo partly drawn) , value?
A. 91.5

Q. Checklist item: Emax tested on human GR (Homo sapiens, UniProt P04150), entry COC(=O)c1ccccc1CS(=O)(=O)N(CC(O)C(F)(F)F)C[C@H]1CCC2=Cc3c(cnn3-c3ccc(F)cc3)C[C@@]21C (stereo partly drawn) , value?
A. 87.1

Q. Checklist item: Emax tested on human GR (Homo sapiens, UniProt P04150), entry C[C@]12Cc3cnn(-c4ccc(F)cc4)c3C=C1CC[C@@H]2CN(CCc1ccccn1)S(=O)(=O)CCN1C(=O)c2ccccc2C1=O , value?
A. 2

Q. Checklist item: Emax tested on human GR (Homo sapiens, UniProt P04150), entry C[C@@H](O)CN(C[C@H]1CCC2=Cc3c(cnn3-c3ccc(F)cc3)C[C@@]21C)S(=O)(=O)Cc1ccccc1C(=O)O , value?
A. 8

Q. Checklist item: Emax tested on human GR (Homo sapiens, UniProt P04150), entry C[C@]12Cc3cnn(-c4ccc(F)cc4)c3C=C1CC[C@@H]2CN(CC(OS(=O)(=O)CC(F)(F)F)c1ccccn1)S(=O)(=O)CC(F)(F)F (stereo partly drawn) , value?
A. 60.2

Q. Checklist item: Emax tested on human GR (Homo sapiens, UniProt P04150), entry C[C@]12Cc3cnn(-c4ccc(F)cc4)c3C=C1CC[C@@H]2CN(CCc1ccccn1)S(=O)(=O)CC(F)(F)F , value?
A. 69.1
